Catalogue of protein stability index readings, one per entry.
test: protein stability index of a GFP-peptide fusion (yeast GPS) (PSI 1-4); higher = more stable; sorted into four equal gates, so the index is relative within each strain; conditions: san1∆
PARAMETER_MEASURED: protein stability index

1. QGPVKNTQLHGPSATDP [RGR1] | 2.97
2. TRSAKKMVIAELLPHYP [YJR042W/NUP85] | 2.89
3. LPYPTYWSDKKADTDTL [SNF5] | 3.1
4. VTRGISVLKDSDDKTRQ [PRE1] | 3.18
5. FDDSSRIVNHKTKLWGF [LIN1] | 3.1
6. AQQQKRGGFGGRNRGRP [RPS2] | 3.31
7. ERAKNVNGLLQVLMDIN [GAL11] | 3.19
8. TSLLNKVLKSGSGVDSS [RRP42] | 2.6
9. FLERFDFYTRHHFTCEI [ITC1] | 2.31
10. VASSTNFTSPTAVVNNA [SWI1] | 2.48
